assay: Half life in C57BL/6 mouse at 20 mg/kg, po; assay type: ADME, organism-based; set-up: dose 20 mg/kg, route oral; settings: in vivo
measured_parameter: half-life (h)

A = COc1cccc(C2SC(c3ccc(F)cc3)=NN2C(=O)c2c(F)cc(F)cc2F)c1OC (configuration not stated)
B = COc1cccc(C2SC(c3ccc(Cl)cc3)=NN2C(=O)c2c(F)cc(F)cc2F)c1OC (racemic)
Problem: Given the entries A and B , determine which has the lower reported half-life. Identify your selection by its label.
A

---

target: UniProt P55055; assay: Displacement of [3H]T-0901317 from GAL-linked human LXRbeta expressed in THP1 cells at 20 uM by SPA relative to GW-3965; type: cell-based; settings: THP-1
measured_parameter: Efficacy (%)

COc1cccc(C2SC(c3ccc(Cl)cc3)=NN2C(=O)c2c(F)cc(F)cc2F)c1OC (racemic) :: 100
COc1cccc([C@H]2SC(c3ccc(Cl)cc3)=NN2C(=O)c2c(F)cc(F)cc2F)c1OC :: 100
O=C(O)Cc1cccc(OCCCN(Cc2cccc(C(F)(F)F)c2Cl)CC(c2ccccc2)c2ccccc2)c1 :: 100

---

target: Oxysterols receptor LXR-beta (Homo sapiens, UniProt P55055); experiment: Agonist activity at GAL-linked human LXRbeta expressed in THP1 cells assessed as stimulation of co-activator recruitment by FRET assay; type: functional
Sequence (P55055 whole entry): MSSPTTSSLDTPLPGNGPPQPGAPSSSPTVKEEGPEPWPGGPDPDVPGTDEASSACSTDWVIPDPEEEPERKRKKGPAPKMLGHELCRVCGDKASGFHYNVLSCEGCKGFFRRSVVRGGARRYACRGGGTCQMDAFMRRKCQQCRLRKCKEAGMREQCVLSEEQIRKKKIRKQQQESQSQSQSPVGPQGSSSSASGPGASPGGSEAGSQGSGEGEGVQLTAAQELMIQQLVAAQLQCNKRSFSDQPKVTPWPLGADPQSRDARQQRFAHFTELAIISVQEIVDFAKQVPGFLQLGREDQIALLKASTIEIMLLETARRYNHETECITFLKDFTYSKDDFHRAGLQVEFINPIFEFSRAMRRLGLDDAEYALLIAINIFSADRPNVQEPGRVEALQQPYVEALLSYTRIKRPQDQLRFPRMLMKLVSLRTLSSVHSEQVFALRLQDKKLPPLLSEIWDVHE
measured_parameter: EC50 (nM)

COc1cccc(C2SC(c3ccc(F)cc3)=NN2C(=O)c2cc(F)cc(F)c2)c1OC (centres undefined) :: 470

P = COc1cccc(C2SC(c3ccc(F)cc3)=NN2C(=O)c2cc(F)c(F)c(OC)c2F)c1OC (centres undefined)
Q = COc1cccc(C2SC(c3ccc(F)c(F)c3)=NN2C(=O)c2cccc(F)c2)c1OC (centres undefined)
R = COc1cccc(C2SC(c3ccc(Cl)cc3)=NN2C(=O)c2ccc(F)cc2F)c1OC (centres undefined)
S = COc1cc(F)c(C(=O)N2N=C(c3ccc(F)cc3)SC2c2cccc(OC)c2OC)c(F)c1 (centres undefined)
Put the items in order so that reported EC50 rises from first to last. Provide the ranking by listing each label in its place in the requested order.
P, S, Q, R

1 = O=C(c1c(F)cc(F)cc1F)N1N=C(c2ccc(F)cc2)SC1c1ccccc1OC(F)F (centres undefined)
2 = COc1cccc(C2SC(c3ccc(F)cc3)=NN2C(=O)c2c(F)ccc(F)c2F)c1OC (centres undefined)
// which entry reports the smaller EC50, 1 or 2 ? Select an item and report its label.
1

1 = COc1cccc(C2SC(c3ccc(C)cc3)=NN2C(=O)c2c(F)cc(F)cc2F)c1OC (centres undefined)
2 = COc1cccc(C2SC(c3ccc(F)cc3)=NN2C(=O)c2cc(F)c(F)cc2F)c1OC (centres undefined)
Field: entry with larger EC50 (options 1 / 2 ). Refer to your chosen item by its label in the answer.
2
(2: 600 nM, 1: 200 nM)

---

molecular target: UniProt:P55055; experiment: Agonist activity at GAL-linked human LXRbeta expressed in THP1 cells assessed as stimulation of co-activator recruitment by FRET assay; assay type: functional
measured_parameter: EC50 (nM)

COc1cccc(C2SC(c3ccc(F)cc3)=NN2C(=O)c2cc(F)ccc2C)c1OC (centres undefined) :: 140
COc1cccc(C2SC(c3ccc(Cl)cc3)=NN2C(=O)c2c(F)cc(F)cc2F)c1 (centres undefined) :: 3700
COc1cccc(C2SC(c3ccc(F)cc3)=NN2C(=O)c2c(F)cc(Br)cc2F)c1OC (centres undefined) :: 160
O=C(c1c(F)cc(F)cc1F)N1N=C(c2ccc(Cl)cc2)SC1c1ccccc1OC(F)(F)F (centres undefined) :: 3400
COc1cccc([C@H]2SC(c3ccc(Cl)cc3)=NN2C(=O)c2c(F)cc(F)cc2F)c1OC :: 67
COc1ccccc1C1(C)SC(c2ccc(F)cc2)=NN1C(=O)c1c(F)cc(F)cc1F (centres undefined) :: 4000
O=C(O)Cc1cccc(OCCCN(Cc2cccc(C(F)(F)F)c2Cl)CC(c2ccccc2)c2ccccc2)c1 :: 27

I = COc1cccc(C2SC(c3ccc(F)cc3)=NN2C(=O)c2cccc(Cl)c2)c1OC (centres undefined)
II = COc1cc(F)ccc1C1SC(c2ccc(F)cc2)=NN1C(=O)c1c(F)cc(F)cc1F (centres undefined)
Sort I and II by EC50 descending and give the first. Write down the label of the entry you select.
I
(I: 250 nM, II: 6 nM)

Sourced from ChEMBL document CHEMBL1148736
